- assay target: T1, His-tagged human CD40 extracellular domain (ECD) (human, UniProt P25942 21-193)
- T1 construct: Bought from Sino Biological; also called human CD40 ECD; CD40-his ECD antigen; not shown: His tag
- T1 sequence (P25942 21-193): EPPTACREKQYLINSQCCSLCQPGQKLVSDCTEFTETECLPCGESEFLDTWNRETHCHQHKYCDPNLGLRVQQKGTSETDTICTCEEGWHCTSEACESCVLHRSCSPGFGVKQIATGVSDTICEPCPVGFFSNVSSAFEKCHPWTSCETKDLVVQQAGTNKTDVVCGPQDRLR
- run description: SPR (IBIS MX96), antibody captured, monovalent CD40 ECD in solution
test readout: koff (s⁻¹)
Hi! Could you send only the number? It should be in s⁻¹, unit omitted.

Exercise: Value lookup for koff; key = antibody 16154 (antibody, human IgG1, kappa, L234A L235A, V domains shown, Fully human IgG1-LALA / kappa) VH: EVQLVESGGGLVQPGGSLRLSCAASGFTFTSYWMSWVRQAPGKGLEWVANIKQDGSEKYYVDSVKGRFTISRDNAKNSLYLQMNSLRAEDTAVYYCARGPVAGPYWYFDLWGRGTLVTVSS VL: AIQMTQSPSSLSASVGDRVTITCRASQGIRNDLGWYQQKPGKAPKLLIYAASSLQSGVPSRFSGSGSGTDFTLTISSLQPEDFATYYCLQDYHYPLTFGGGTKVEIKR
Key: 0.00031
